# experimental_system: human GCG receptor (human, UniProt P47871 26-477)
# Sequence (P47871 26-477): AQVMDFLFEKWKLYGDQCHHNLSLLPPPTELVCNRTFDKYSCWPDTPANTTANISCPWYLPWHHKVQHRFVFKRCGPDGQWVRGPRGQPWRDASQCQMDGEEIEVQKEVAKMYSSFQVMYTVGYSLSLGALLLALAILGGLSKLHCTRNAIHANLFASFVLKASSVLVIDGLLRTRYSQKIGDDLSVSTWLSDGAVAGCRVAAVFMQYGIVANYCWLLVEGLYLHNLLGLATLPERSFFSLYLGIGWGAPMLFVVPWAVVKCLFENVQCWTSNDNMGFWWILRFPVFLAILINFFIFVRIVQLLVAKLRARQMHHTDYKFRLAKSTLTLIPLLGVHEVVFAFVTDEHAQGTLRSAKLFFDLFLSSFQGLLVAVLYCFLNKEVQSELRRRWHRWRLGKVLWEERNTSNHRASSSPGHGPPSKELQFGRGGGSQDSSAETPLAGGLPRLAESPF
# assay_protocol: cell-based or functional assay
Bridges are numbered along the chain shown (N, C = ends). Where no end group is shown, it is not given here. [ ]: non-standard residue; d: D form. The star is where a group is joined. Acetyl(2-(4-imidazolyl)) = O=C(Cc1c[nH]cn1)*; Aib = CC(C)(N)C(=O)O
For each of the binders below, state its In vitro activity compared with native peptide (%) vs. Glucagon.
I only need the number, in %, no unit after it.

Query string: Please look up its In vitro activity compared with native peptide (%) vs. Glucagon: H[Aib]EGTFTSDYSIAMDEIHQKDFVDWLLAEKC (bridge 16-20) [Triple agonist of SEQ ID NO: 80]
Result string: 0

Query string: Please look up its In vitro activity compared with native peptide (%) vs. Glucagon: H[Aib]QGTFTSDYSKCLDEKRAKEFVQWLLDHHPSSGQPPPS (bridge 16-20) [Triple agonist of SEQ ID NO: 65]
Result string: 25.2

Query string: Please look up its In vitro activity compared with native peptide (%) vs. Glucagon: {Acetyl(2-(4-imidazolyl))}-[Aib]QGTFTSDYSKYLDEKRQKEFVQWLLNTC (bridge 15-19) [Triple agonist of SEQ ID NO: 81]
Result string: 0.3

Query string: Please look up its In vitro activity compared with native peptide (%) vs. Glucagon: H[Aib]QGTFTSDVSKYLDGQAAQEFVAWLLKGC [Triple agonist of SEQ ID NO: 8]
Result string: 0.1

Query string: Please look up its In vitro activity compared with native peptide (%) vs. Glucagon: Y[Aib]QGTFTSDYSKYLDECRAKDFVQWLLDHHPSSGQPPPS (bridge 16-20) [Triple agonist of SEQ ID NO: 66]
Result string: 172

Query string: Please look up its In vitro activity compared with native peptide (%) vs. Glucagon: H[Aib]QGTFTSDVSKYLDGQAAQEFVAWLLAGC [Triple agonist of SEQ ID NO: 9]
Result string: 0.13

Query string: Please look up its In vitro activity compared with native peptide (%) vs. Glucagon: Y[Aib]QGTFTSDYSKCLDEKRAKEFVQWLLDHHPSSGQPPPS (bridge 16-20) [Triple agonist of SEQ ID NO: 22]
Result string: 140

Query string: Please look up its In vitro activity compared with native peptide (%) vs. Glucagon: H[Aib]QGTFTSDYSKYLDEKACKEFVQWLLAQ (bridge 16-20) [Triple agonist of SEQ ID NO: 31]
Result string: 2.2

Query string: Please look up its In vitro activity compared with native peptide (%) vs. Glucagon: H[Aib]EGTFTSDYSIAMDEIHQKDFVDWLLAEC (bridge 16-20) [Triple agonist of SEQ ID NO: 54]
Result string: 1.4

Query string: Please look up its In vitro activity compared with native peptide (%) vs. Glucagon: H[Aib]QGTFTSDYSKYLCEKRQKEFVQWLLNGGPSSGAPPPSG (bridge 16-20) [Triple agonist of SEQ ID NO: 36]
Result string: 0.39
